These measurements were taken from paper PMC4156298.

Substrate: Cc1cc(=O)oc2cc(NC(=O)[C@@H](N)CCCNC(=N)N)ccc12
Assay: fluorescence of released amc, Hill equation fit
Format: biochemical, Pyrococcus horikoshii
Conditions: 50 mM sodium phosphate pH 7.5, 358 K, 60 min, aminopeptidase, 85.0 °C
MEASUREMENT_TYPE: kcat/Km (M⁻¹ s⁻¹)
Enter your answer as a number in M⁻¹ s⁻¹; do not include the unit.

Name the recorded kcat/Km of the item PH1704 protease (Pyrococcus horikoshii OT3; Y120S) (protein, full-length gene in pET-15b (NdeI/BamHI), His-tag (detected by anti-His western blot), E. coli BL21(DE3); heat step and Sephacryl S-200) MKVLFLTANEFEDVELIYPYHRLKEEGHEVYIASFERGTITGKHGYSVKVDLTFDKVNPEEFDALVLPGGRAPERVRLNEKAVSIARKMFSEGKPVASICHGPQILISAGVLRGRKGTSSPGIKDDMINAGVEWVDAEVVVDGNWVSSRVPADLYAWMREFVKLLK in your answer.
400
